# Tested System: phosphorylated EGFR (pEGFR) (Homo sapiens)
# Construct: performed to measure phosphorylated EGFR levels using A431 cells; endogenous in cells
# Sequence (P00533 25-1210): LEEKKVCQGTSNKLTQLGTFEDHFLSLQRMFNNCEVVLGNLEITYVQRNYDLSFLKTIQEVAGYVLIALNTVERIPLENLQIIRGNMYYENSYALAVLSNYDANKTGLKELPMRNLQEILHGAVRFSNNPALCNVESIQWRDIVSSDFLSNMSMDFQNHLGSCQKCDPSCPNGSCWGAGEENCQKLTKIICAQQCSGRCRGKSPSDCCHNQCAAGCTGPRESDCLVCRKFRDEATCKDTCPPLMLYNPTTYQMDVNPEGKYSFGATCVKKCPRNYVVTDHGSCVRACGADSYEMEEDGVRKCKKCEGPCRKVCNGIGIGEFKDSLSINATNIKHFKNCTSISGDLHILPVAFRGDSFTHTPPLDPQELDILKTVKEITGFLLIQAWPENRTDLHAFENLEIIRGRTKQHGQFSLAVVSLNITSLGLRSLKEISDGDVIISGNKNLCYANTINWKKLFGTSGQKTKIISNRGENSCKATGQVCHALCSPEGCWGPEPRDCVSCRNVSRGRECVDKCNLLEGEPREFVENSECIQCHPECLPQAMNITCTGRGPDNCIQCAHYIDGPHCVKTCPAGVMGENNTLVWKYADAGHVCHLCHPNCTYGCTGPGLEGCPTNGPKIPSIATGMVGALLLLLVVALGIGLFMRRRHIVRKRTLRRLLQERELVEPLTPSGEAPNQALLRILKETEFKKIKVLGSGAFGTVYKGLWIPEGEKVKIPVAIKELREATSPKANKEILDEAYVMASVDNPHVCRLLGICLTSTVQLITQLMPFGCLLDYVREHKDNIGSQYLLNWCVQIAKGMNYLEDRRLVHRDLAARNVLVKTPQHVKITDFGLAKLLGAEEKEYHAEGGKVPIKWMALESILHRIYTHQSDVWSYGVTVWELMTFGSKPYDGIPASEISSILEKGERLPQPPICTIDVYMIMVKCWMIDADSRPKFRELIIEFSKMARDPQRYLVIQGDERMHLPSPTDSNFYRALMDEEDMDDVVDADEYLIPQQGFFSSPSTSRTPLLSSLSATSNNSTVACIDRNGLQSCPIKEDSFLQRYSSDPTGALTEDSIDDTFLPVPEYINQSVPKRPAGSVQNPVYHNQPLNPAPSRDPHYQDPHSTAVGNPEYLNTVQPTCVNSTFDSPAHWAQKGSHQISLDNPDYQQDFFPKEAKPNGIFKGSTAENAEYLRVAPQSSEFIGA
# Assay Explanation: Detection of phosphorylated EGFR (pEGFR) in EGF-stimulated A431 cells (AlphaLISA)
# Run Conditions: A431 cells (10% FBS), 4 hours incubation, EGF 30 ng/mL for 10 minutes
Parameter: pIC50
# pIC50 is unitless: minus log10 of the molar concentration; print number only

Enquiry: # lookup: pIC50 of C=CC(=O)N1CCC[C@H](Nc2ccc3ncnc(Nc4ccc(Oc5ccn6ncnc6c5)c(C)c4)c3n2)C1
Return: 5.80

Next:
Enquiry: # lookup: pIC50 of C=CC(=O)N1CCN(c2ccc3ncnc(Nc4ccc(O[C@@H]5CCCOC5)c(C)c4)c3n2)CC1
Return: 6.73

Enquiry: # lookup: pIC50 of C=CC(=O)N1CCN(c2ncc3ncnc(Nc4ccc(Oc5ccn6ncnc6c5)c(C)c4)c3n2)[C@@H](C)C1
Return: 5.63

Enquiry: # lookup: pIC50 of C=CC(=O)N1CCN(c2ccc3ncnc(Nc4ccc(Cc5ccn6ncnc6c5)c(C)c4)c3c2)CC1
Return: 5.63

Enquiry: # lookup: pIC50 of C=CC(=O)N1C2CCC1CN(c1ccc3ncnc(Nc4ccc(Cc5ccn6ncnc6c5)c(C)c4)c3n1)C2
Return: 5.67

Enquiry: # lookup: pIC50 of Cc1cc(Nc2ncnc3ccc(N4CCN(C(=O)/C=C/CN(C)C)CC4)nc23)ccc1Cc1ccn2ncnc2c1
Return: 5.62

Enquiry: # lookup: pIC50 of C=CC(=O)N1CCN(c2ccc3ncnc(Nc4ccc(Oc5ccc(CC)nc5)c(C)c4)c3n2)CC1
Return: 5.59

====

# Tested System: Ba/F3 ERBB2 YVMA (Homo sapiens, UniProt P04626, DUP772-775, cells depend on it)
# Sequence (P04626 with tags, fused parts or gaps DUP772-775): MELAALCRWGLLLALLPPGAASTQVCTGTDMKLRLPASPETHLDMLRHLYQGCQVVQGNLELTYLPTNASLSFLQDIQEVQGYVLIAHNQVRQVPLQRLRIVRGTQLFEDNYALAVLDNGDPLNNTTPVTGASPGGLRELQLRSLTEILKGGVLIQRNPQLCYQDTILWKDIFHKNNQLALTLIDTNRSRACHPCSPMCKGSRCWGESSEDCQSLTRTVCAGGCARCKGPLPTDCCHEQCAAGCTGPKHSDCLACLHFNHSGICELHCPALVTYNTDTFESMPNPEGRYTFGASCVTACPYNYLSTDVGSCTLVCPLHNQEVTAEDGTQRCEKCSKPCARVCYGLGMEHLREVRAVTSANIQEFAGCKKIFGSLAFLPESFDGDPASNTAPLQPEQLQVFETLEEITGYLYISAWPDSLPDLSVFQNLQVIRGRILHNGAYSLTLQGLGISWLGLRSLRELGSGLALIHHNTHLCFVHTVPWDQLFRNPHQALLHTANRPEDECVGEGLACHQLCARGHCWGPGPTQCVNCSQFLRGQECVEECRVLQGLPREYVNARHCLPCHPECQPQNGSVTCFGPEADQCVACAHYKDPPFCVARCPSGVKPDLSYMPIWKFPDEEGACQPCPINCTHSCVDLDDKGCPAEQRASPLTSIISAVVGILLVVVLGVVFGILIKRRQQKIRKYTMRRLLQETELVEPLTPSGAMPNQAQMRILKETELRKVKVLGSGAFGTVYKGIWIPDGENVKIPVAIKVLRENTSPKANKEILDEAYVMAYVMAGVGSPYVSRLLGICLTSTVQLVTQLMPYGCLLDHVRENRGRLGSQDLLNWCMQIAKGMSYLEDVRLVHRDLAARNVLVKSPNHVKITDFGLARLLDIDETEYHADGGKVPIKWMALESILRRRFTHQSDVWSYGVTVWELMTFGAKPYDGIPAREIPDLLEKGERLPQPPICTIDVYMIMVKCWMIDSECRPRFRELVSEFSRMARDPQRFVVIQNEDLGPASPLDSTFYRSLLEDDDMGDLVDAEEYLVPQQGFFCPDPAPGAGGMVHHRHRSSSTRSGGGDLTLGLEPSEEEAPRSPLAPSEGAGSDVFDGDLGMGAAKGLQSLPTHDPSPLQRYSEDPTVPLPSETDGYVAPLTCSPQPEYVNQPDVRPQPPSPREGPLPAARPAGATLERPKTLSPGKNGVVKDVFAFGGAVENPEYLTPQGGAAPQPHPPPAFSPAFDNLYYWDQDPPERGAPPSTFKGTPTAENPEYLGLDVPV
# Assay Explanation: Cell viability assay (CellTiter Glo) in Ba/F3 cells engineered to express ERBB2 YVMA
# Type: cell-based, mouse
# Run Conditions: Ba/F3 cells expressing human ERBB2 YVMA mutant, 72 hours, % viability, read-out: Ba/F3 ERBB2 YVMA IC50
Label key: fulfilled means GI50 under 8 nM; not fulfilled means GI50 of 8 nM or more.

Enquiry: Does C=CC(=O)N1CCN(c2cc3c(Nc4ccc(Cc5ccc6c(c5)ncn6C)c(C)c4)ncnc3cn2)C[C@H]1C have GI50 strictly under 8 nM?
Return: not fulfilled

Enquiry: Does C=CC(=O)N1CCN(c2ccc3ncnc(Nc4ccc(Oc5ccn6ncnc6c5)c(C)c4)c3n2)C[C@H]1C have GI50 strictly under 8 nM?
Return: fulfilled

Enquiry: Does C=CC(=O)N1CCN(c2ccc3ncnc(Nc4ccc(Oc5ccn6ncnc6c5)c(C)c4)c3n2)C[C@@H]1C have GI50 strictly under 8 nM?
Return: fulfilled

Enquiry: Does C=CC(=O)N1C2CCC1CN(c1ccc3ncnc(Nc4ccc(Oc5ccc6c(c5)ncn6C)c(C)c4)c3n1)C2 have GI50 strictly under 8 nM?
Return: not fulfilled

Enquiry: Does C=CC(=O)N1CC[C@H](Oc2ccc3ncnc(Nc4ccc(Oc5ccc6c(c5)ncn6C)c(C)c4)c3c2)C1 have GI50 strictly under 8 nM?
Return: fulfilled

Enquiry: Does CC#CC(=O)N1CCN(c2ccc3ncnc(Nc4ccc(Oc5ccn6ncnc6c5)c(C)c4)c3n2)CC1 have GI50 strictly under 8 nM?
Return: not fulfilled

Read the next record carefully.
Enquiry: Does C=CC(=O)N1CCN(c2ccc3ncnc(Nc4ccc(Cc5ccc6c(c5)ncn6C)c(C)c4)c3n2)[C@@H](C)C1 have GI50 strictly under 8 nM?
Return: not fulfilled

====

# Tested System: Ba/F3 ERBB2 YVMA (Homo sapiens, UniProt P04626, DUP772-775, cells depend on it)
# Assay Explanation: Cell viability assay (CellTiter Glo) in Ba/F3 cells engineered to express ERBB2 YVMA
# Assay type: cell-based, mouse
# Run Conditions: Ba/F3 cells expressing human ERBB2 YVMA mutant, 72 hours, % viability, read-out: Ba/F3 ERBB2 YVMA IC50
Parameter: GI50

Enquiry: # lookup: GI50 of C=CC(=O)N1CCN(c2cc3c(Nc4ccc(Oc5ccc6c(c5)ncn6C)c(C)c4)ncnc3cn2)[C@@H](C)C1 [Compound 107]
Return: 0.0734 µM

Next:
Enquiry: # lookup: GI50 of Cc1cc(Nc2ncnc3ccc(N4CCN(C(=O)/C=C/CN(C)C)CC4)nc23)ccc1Cc1ccn2ncnc2c1 [Compound 87]
Return: 0.0173 µM

Enquiry: # lookup: GI50 of CC#CC(=O)N1CC2CCC(C1)N2c1ccc2ncnc(Nc3ccc(Oc4ccc5c(c4)ncn5C)c(C)c3)c2n1 [Compound 75]
Return: 0.00819 µM

Enquiry: # lookup: GI50 of C=CC(=O)N1CCN(c2ccc3ncnc(Nc4ccc(Oc5ccc6c(c5)ncn6C)c(C)c4)c3n2)C[C@H]1C [Compound 48]
Return: 0.0183 µM

Enquiry: # lookup: GI50 of C=CC(=O)N1CCN(c2ccc3ncnc(Nc4ccc(Cc5ccc6c(c5)ncn6C)c(C)c4)c3n2)CC1 [Compound 82]
Return: 0.0939 µM

Enquiry: # lookup: GI50 of C=CC(=O)N1CC2CCC(C1)N2c1ccc2ncnc(Nc3ccc(Oc4ccc5c(c4)ncn5C)c(C)c3)c2n1 [Compound 73]
Return: 0.029 µM

Enquiry: # lookup: GI50 of C=CC(=O)N1CCN(c2ccc3ncnc(Nc4ccc(Cc5ccn6ncnc6c5)c(C)c4)c3n2)CC12CC2 [Compound 129]
Return: 0.00532 µM

Enquiry: # lookup: GI50 of C=CC(=O)N1CC[C@@H](Nc2ccc3ncnc(Nc4ccc(Oc5ccn6ncnc6c5)c(C)c4)c3n2)C1 [Compound 44]
Return: 0.00258 µM

====

# Tested System: Ba/F3 ERBB2 YVMA (Homo sapiens, UniProt P04626, DUP772-775, cells depend on it)
# Assay Explanation: Cell viability assay (CellTiter Glo) in Ba/F3 cells engineered to express ERBB2 YVMA
# Type: cell-based, mouse
# Run Conditions: Ba/F3 cells expressing human ERBB2 YVMA mutant, 72 hours, % viability, read-out: Ba/F3 ERBB2 YVMA IC50
Assign a class from recorded GI50; defined classes: bucket 1 (below 9 nM), bucket 2 (9 nM to below 20 nM), bucket 3 (20 nM or more)

Check out these entries, answers already filled in.
Enquiry: Could you tell me which band C=CC(=O)N1C2CCC1CN(c1ccc3ncnc(Nc4ccc(Cc5ccc6c(c5)ncn6C)c(C)c4)c3n1)C2 belongs to?
Return: bucket 2

Enquiry: Could you tell me which band C=CC(=O)N1CCN(c2ncc3ncnc(Nc4ccc(Cc5ccc6c(c5)ncn6C)c(C)c4)c3n2)C[C@H]1C belongs to?
Return: bucket 2

Enquiry: Could you tell me which band CC#CC(=O)N1CCN(c2ccc3ncnc(Nc4ccc(Oc5ccn6ncnc6c5)c(C)c4)c3n2)C[C@H]1C belongs to?
Return: bucket 1

Enquiry: Could you tell me which band Cc1cc(Nc2ncnc3ccc(N4CCN(C(=O)/C=C/CN(C)C)C[C@@H]4C)nc23)ccc1Cc1ccn2ncnc2c1 belongs to?
Return: bucket 3

Enquiry: Could you tell me which band CC#CC(=O)N1CC2CC(C1)N2c1ccc2ncnc(Nc3ccc(Oc4ccn5ncnc5c4)c(C)c3)c2n1 belongs to?
Return: bucket 3

Enquiry: Could you tell me which band C=CC(=O)N1CCN(c2ccc3ncnc(Nc4ccc(Oc5ccc(CC)nc5)c(C)c4)c3n2)CC1 belongs to?
Return: bucket 3

Next:
Enquiry: Could you tell me which band C=CC(=O)N1CCN(c2ncc3ncnc(Nc4ccc(Cc5ccc6c(c5)ncn6C)c(C)c4)c3n2)[C@@H](C)C1 belongs to?
Return: bucket 2

Enquiry: Could you tell me which band C=CC(=O)N1CCN(c2ccc3ncnc(Nc4ccc(Oc5ccc6c(c5)ncn6C)c(C)c4)c3n2)CC1 belongs to?
Return: bucket 1

Enquiry: Could you tell me which band C=CC(=O)N1CCN(c2ncc3ncnc(Nc4ccc(Oc5ccn6ncnc6c5)c(C)c4)c3n2)CC1 belongs to?
Return: bucket 1

Enquiry: Could you tell me which band CC#CC(=O)N1CCN(c2ccc3ncnc(Nc4ccc(Oc5ccc6c(c5)ncn6C)c(C)c4)c3n2)CC1 belongs to?
Return: bucket 1

Enquiry: Could you tell me which band C=CC(=O)N1CCN(c2ccc3ncnc(Nc4ccc(Cc5ccn6ncnc6c5)c(C)c4)c3c2F)C[C@H]1C belongs to?
Return: bucket 3

====

Item-by-item account of GI50
# Tested System: Ba/F3 ERBB2 YVMA (Homo sapiens, UniProt P04626, DUP772-775, cells depend on it)
# Assay Explanation: Cell viability assay (CellTiter Glo) in Ba/F3 cells engineered to express ERBB2 YVMA
# Assay type: cell-based, mouse
# Run Conditions: Ba/F3 cells expressing human ERBB2 YVMA mutant, 72 hours, % viability, read-out: Ba/F3 ERBB2 YVMA IC50
Provide only the numeric value, understood in nM.

# example entries with known answers
Enquiry: # lookup: GI50 of Cc1cc(Nc2ncnc3ccc(N4CCN(C(=O)/C=C/CN(C)C)[C@H](C)C4)nc23)ccc1Cc1ccc2c(c1)ncn2C
Return: 9.08

Enquiry: # lookup: GI50 of C=CC(=O)N1CCC2(CCN(c3ccc4ncnc(Nc5ccc(Oc6ccn7ncnc7c6)c(C)c5)c4n3)C2)C1 (centres unmarked)
Return: 21

Enquiry: # lookup: GI50 of CC#CC(=O)N1CCN(c2ccc3ncnc(Nc4ccc(Oc5ccn6ncnc6c5)c(C)c4)c3n2)[C@H](C)C1
Return: 68.9

Enquiry: # lookup: GI50 of C=CC(=O)N1CCN(c2cc3c(Nc4ccc(Cc5ccc6c(c5)ncn6C)c(C)c4)ncnc3cn2)[C@@H](C)C1
Return: 20.5

Next:
Enquiry: # lookup: GI50 of CC#CC(=O)N1CC2CCC(C1)N2c1ccc2ncnc(Nc3ccc(Oc4ccn5ncnc5c4)c(C)c3)c2n1
Return: 6.16
